- system_name: UniProt:P35968
- Sequence (P35968 whole entry, the tested form may be a part): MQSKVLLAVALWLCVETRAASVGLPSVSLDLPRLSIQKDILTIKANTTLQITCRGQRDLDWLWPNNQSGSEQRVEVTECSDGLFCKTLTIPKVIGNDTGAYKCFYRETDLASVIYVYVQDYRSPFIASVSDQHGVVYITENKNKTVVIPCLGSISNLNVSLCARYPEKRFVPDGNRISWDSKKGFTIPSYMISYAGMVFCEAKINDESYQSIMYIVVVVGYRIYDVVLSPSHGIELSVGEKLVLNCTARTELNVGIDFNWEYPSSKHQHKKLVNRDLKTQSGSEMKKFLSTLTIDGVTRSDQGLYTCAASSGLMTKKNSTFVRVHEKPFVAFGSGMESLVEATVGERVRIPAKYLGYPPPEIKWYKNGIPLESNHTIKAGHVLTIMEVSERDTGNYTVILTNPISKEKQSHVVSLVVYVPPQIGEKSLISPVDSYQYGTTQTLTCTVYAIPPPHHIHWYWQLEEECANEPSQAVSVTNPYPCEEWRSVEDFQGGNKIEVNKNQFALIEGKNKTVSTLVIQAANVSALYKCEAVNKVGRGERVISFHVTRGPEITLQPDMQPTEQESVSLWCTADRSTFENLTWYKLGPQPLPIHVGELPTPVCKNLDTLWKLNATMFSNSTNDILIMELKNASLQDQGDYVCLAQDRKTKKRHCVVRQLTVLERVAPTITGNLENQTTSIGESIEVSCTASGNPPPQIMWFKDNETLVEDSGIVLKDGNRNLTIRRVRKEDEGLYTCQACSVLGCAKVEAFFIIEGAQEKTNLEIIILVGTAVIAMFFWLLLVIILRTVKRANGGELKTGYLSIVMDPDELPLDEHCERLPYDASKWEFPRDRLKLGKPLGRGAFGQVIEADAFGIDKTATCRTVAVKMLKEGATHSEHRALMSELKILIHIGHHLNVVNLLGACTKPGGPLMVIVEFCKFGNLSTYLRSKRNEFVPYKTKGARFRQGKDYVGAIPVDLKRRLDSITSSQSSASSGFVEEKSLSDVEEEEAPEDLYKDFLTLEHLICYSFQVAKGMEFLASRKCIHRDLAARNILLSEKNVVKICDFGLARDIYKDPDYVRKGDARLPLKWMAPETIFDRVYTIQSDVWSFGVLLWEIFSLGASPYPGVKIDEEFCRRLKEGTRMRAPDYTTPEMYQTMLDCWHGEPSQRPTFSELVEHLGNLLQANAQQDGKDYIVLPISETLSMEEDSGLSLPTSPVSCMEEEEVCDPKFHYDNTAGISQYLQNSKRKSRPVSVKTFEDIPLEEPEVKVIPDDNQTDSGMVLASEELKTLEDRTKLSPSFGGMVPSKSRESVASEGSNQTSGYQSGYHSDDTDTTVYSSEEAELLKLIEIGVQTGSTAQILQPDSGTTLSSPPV
- assay_procedure: Inhibition of recombinant human N-terminal GST-fused KDR (D807 to V1356 residues) expressed in baculovirus infected […] insect Sf9 cells using poly-EY as substrate after 240 mins by luciferase coupled chemiluminescence assay
pIC50: −log10 of the molar value.
recorded_endpoint: pIC50

As a guide, the following entries are already answered.
Task item: State, in one line, measured pIC50 of CCCCCCCCN1CCOC(COc2cc3ncnc(Nc4ccc(Cl)c(Cl)c4)c3cc2OC)C1 (stereo not drawn)
Reply: 4.70 to 6.00

Task item: State, in one line, measured pIC50 of COc1cc2c(Nc3ccc(Cl)c(Cl)c3)ncnc2cc1OCC1CN2CCOCC2CO1 (stereo not drawn)
Reply: > 7.30

Task item: State, in one line, measured pIC50 of COc1cc2c(Nc3ccc(Br)c(Cl)c3)ncnc2cc1O[C@H]1CO[C@H]2[C@@H]1OC[C@@H]2O
Reply: 4.70 to 6.00

---
Task item: State, in one line, measured pIC50 of CCC(=O)N1CCOC(COc2cc3ncnc(Nc4ccc(Cl)c(Cl)c4)c3cc2OC)C1 (stereo not drawn)
Reply: 6.00 to 7.30

Task item: State, in one line, measured pIC50 of COc1cc2c(Nc3ccc(Cl)cc3Cl)ncnc2cc1OCC1CN(C)CCO1 (stereo not drawn)
Reply: 6.00 to 7.30

Task item: State, in one line, measured pIC50 of CCC(=O)CN1CCOC(COc2cc3ncnc(Nc4ccc(Cl)c(Cl)c4)c3cc2OC)C1 (stereo not drawn)
Reply: 6.00 to 7.30

Task item: State, in one line, measured pIC50 of COc1cc2c(Nc3ccc(Br)cc3F)ncnc2cc1OCC1CN(C)CCO1 (stereo not drawn)
Reply: > 7.30

Task item: State, in one line, measured pIC50 of COc1cc2c(Nc3ccc(Br)c(Cl)c3)ncnc2cc1O[C@H]1CO[C@H]2[C@@H]1OC[C@@H]2N1CCN(C)CC1
Reply: 4.70 to 6.00

----------
Parameter IC50: see the listing below.
- system_name: Ephrin type-B receptor 4 (Homo sapiens, UniProt P54760)
- Sequence (P54760 whole entry, the tested form may be a part): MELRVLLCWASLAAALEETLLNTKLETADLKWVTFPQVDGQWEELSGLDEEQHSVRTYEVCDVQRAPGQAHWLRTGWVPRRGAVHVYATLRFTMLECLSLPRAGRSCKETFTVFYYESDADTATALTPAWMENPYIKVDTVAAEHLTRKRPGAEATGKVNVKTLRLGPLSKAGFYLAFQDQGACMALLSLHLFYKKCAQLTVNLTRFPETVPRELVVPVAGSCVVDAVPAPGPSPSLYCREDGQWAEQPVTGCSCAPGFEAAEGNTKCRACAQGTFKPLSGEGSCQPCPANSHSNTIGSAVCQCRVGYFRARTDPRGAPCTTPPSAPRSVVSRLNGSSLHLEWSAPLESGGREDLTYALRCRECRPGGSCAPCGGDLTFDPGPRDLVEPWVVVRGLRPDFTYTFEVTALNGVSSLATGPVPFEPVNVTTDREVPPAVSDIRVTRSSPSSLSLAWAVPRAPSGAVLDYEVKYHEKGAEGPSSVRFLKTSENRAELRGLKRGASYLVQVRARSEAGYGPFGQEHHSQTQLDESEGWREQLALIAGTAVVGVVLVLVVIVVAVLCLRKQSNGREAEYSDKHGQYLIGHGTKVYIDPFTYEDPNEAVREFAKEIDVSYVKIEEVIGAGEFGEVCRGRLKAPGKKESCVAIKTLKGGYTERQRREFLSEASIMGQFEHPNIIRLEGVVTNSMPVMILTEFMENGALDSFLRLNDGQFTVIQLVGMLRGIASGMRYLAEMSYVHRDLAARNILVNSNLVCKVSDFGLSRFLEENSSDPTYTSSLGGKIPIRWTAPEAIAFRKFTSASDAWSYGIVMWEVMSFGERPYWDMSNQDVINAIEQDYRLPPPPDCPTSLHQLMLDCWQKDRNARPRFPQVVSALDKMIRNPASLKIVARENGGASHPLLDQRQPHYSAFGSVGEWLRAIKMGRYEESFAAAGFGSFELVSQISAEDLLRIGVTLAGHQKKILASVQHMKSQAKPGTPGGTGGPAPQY
- assay_procedure: Inhibition of recombinant human N-terminal His6-tagged EphB4 kinase domain (E605 to E890 residues) expressed in baculovirus using poly-AEKY as substrate after 150 mins in presence of gamma33P-ATP by liquid scintillation spectrometry

As a guide, the following entries are already answered.
Task item: State, in one line, measured IC50 of COc1cc2c(Nc3ccc(Cl)cc3F)ncnc2cc1OCC1CN(C)CCO1 (stereo unspecified)
Reply: 50 to 1000 nM

Task item: State, in one line, measured IC50 of COc1cc2c(Nc3ccc(Cl)c(Cl)c3)ncnc2cc1OCC1CN(c2ccncc2)CCO1 (stereo unspecified)
Reply: < 50 nM

---
Task item: State, in one line, measured IC50 of COc1cc2c(Nc3cc(Cl)c(Cl)c(Cl)c3)ncnc2cc1OCC1CN(C)CCO1 (stereo unspecified)
Reply: < 50 nM

Task item: State, in one line, measured IC50 of COc1cc2c(Nc3ccc(Cl)c(Cl)c3)ncnc2cc1OCC1CN(S(C)(=O)=O)CCO1 (stereo unspecified)
Reply: < 50 nM

Task item: State, in one line, measured IC50 of COc1cc2c(Nc3cc(F)c(Br)c(F)c3)ncnc2cc1OCC1CN(C)CCO1 (stereo unspecified)
Reply: 50 to 1000 nM

Task item: State, in one line, measured IC50 of COc1cc2c(Nc3ccc(Cl)c(Cl)c3)ncnc2cc1OCC1CN(/C(=N/C#N)N2CCCC2)CCO1 (stereo unspecified)
Reply: < 50 nM
